Biological target: Transcription factor p65 (Human, UniProt Q04206)
Sequence (Q04206 whole entry): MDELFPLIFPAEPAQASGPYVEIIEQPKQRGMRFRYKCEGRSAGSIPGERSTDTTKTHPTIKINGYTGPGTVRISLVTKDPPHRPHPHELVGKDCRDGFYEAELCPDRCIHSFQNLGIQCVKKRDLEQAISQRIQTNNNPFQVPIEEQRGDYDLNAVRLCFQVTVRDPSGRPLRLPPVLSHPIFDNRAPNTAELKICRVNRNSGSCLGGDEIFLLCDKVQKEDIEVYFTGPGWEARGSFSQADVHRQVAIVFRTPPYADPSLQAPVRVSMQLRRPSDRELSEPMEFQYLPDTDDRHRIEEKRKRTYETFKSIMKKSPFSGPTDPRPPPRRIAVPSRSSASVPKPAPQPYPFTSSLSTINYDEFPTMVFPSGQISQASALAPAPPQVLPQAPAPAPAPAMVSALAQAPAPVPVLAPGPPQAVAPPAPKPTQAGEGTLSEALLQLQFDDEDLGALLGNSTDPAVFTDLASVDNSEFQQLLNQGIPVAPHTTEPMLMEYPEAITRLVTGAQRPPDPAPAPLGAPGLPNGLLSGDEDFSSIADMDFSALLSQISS
Experiment: Inhibition of TNF-alpha-stimulated human NF-kappaB p65 RelA subunit nuclear translocation in HUVEC
measured.attribute: IC50 (nM)
The figure you give is taken to be in nM; do not add the unit.

Worked examples, 2 compounds total:
{"molecule.smiles": "O=S1(=O)Nc2c(ccc3cccnc23)-c2cc(C(F)(F)F)ccc21", "u": "nM", "IC50": 1000}
{"molecule.smiles": "O=S(=O)(Nc1cccc2cccnc12)c1ccc(Br)s1", "u": "nM", "IC50": 1100}

Would you mind telling me what IC50 value was observed for "Cc1ccc2cccc(NS(=O)(=O)c3ccccc3N)c2n1" ?
2800

Request: "Cc1ccc2cccc(NS(=O)(=O)c3cccc([N+](=O)[O-])c3)c2n1"
900

Entry to check: "COc1cnc2c3c(ccc2c1)-c1ccccc1S(=O)(=O)N3"
2500

What about "Cc1ccc2cccc(NS(=O)(=O)c3ccc(Br)s3)c2n1" ?
1400

Continue with "Nc1ccccc1S(=O)(=O)Nc1cccc2cccnc12"
2000

// next record "O=S1(=O)Nc2c(ccc3cccnc23)-c2ccccc21"
1000

Try "O=[N+]([O-])c1ccc(S(=O)(=O)Nc2cccc3cccnc23)cc1" next.
1500

// repeat for "O=[N+]([O-])c1cc(C(F)(F)F)ccc1S(=O)(=O)Nc1cccc2cccnc12" and report
3700

How about "COc1cc(NS(=O)(=O)c2ccc(C)cc2N)c2ncccc2c1" ?
1000

---

pEC50 values by entry
Assay: Induction of human IkappaBalpha stabilization in OCI-Ly3 cells assessed as ratio of green light emiting IkappaBalpha-fused luciferase expression to red light emiting native luciferase expression
Note on units: pEC50 is unitless, being -log10 of a concentration expressed in mol/L.

Field request: pEC50 | item: "Cc1ccc2c(c1)-c1ccc3cccnc3c1NS2(=O)=O"
6.10

Same lookup for O=S(=O)(Nc1cccc2cccnc12)c1ccccc1 [N-(quinolin-8-yl)benzenesulfonamide] , please.
4.70

Now give it for "COc1cc2ccc(C)nc2c2c1-c1cc(C)ccc1S(=O)(=O)N2" too.
5.64

Next compound: "O=S1(=O)Nc2c(ccc3cccnc23)-c2cc(F)ccc21"
4.92

And then "O=[N+]([O-])c1cc(C(F)(F)F)ccc1S(=O)(=O)Nc1cccc2cccnc12" , what is it?
4.70

Also need "COc1cc2cccnc2c2c1-c1cc(C)ccc1S(=O)(=O)N2" , thanks.
5.80

Check "O=S(=O)(Nc1cccc2cccnc12)c1ccc(Cl)s1" too.
5.57

Query "Cc1ccc2cccc(NS(=O)(=O)c3ccc(C(F)(F)F)cc3[N+](=O)[O-])c2n1" next
5.44

Another compound to check: "Cc1ccc2cccc(NS(=O)(=O)c3ccc(Cl)s3)c2n1"
5.68

Now consider "Cc1ccc2cccc(NS(=O)(=O)c3cccc([N+](=O)[O-])c3)c2n1" .
4.89

Now this one: "Cc1ccc2ccc3c(c2n1)NS(=O)(=O)c1ccc(C(F)(F)F)cc1-3"
5.14

---

Assay: Induction of human IkappaBalpha stabilization in OCI-Ly3 cells assessed as ratio of green light emiting IkappaBalpha-fused luciferase expression to red light emiting native luciferase expression
Peptide text beside a SMILES is read from it. * marks the point of attachment. Cbz = O=C(OCc1ccccc1)*
Reported pEC50 is given for each of the following molecules.
Remember the convention: pEC50 equals -log10 of concentration in molar.

{"molecule": "O=[N+]([O-])c1ccccc1S(=O)(=O)Nc1cccc2cccnc12", "pEC50": 4.92}
{"molecule": "COc1ccc2c(c1)-c1ccc3cccnc3c1NS2(=O)=O", "pEC50": 5.85}
{"molecule": "Cc1ccc2ccc3c(c2n1)NS(=O)(=O)c1ccc(O)cc1-3", "pEC50": 4.96}

Then this molecule:
# pEC50 lookup, item CC(C)C[C@@H](C=O)NC(=O)[C@H](CC(C)C)NC(=O)[C@H](CC(C)C)NC(=O)OCc1ccccc1 (Cbz-Leu-Leu-Leu-aldehyde)
5.28

Cited source: BindingDB's records for doi:10.1016/j.bmcl.2007.10.100
